- assayDetails: chemical genetic growth profiling, strain panel (AID 1159580);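 also: tested at 20 µM; growth read once vehicle control cultures reached saturation at 30 °C; 1 = growth at the plate median or of vehicle wells; lower values mean less growth of the strain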
- appliedConditions: S. cerevisiae deletion strains, growth OD, locus YDR195W, strain ref2
About 2,000 (36%) of roughly 5,500 compounds were called active. Another 18% or so got no clear call; they are omitted. The list shows a part of the results.
Overview of recorded normalized growth for various compounds

Sample records with normalized growth:
Nc1ccc(N=Nc2ccccc2)c(N)n1 | 1.61 [resistant] (active)
C#CCCCCCCCCCCCC(O)CC(O)COC(C)=O (configuration not stated) | 0.482 (active)
CC(C)NCC(O)c1cc(O)cc(O)c1 (configuration not stated) | 0.982 (inactive)

Short answer for C=CCCCCCCCCCCCC(O)CC(O)COC(C)=O (configuration not stated) (tested in a mixture with another compound) : normalized growth was 0.875 (inactive)

Short answer for C=CCSCC1Nc2cc(Cl)c(S(N)(=O)=O)cc2S(=O)(=O)N1 (configuration not stated) : normalized growth was 1 (inactive)

Short answer for `CCOC(=O)[C@H](CCc1ccccc1)N[C@@H](C)C(=O)N1[C@H](C(=O)O)C[C@@H]2CCC[C@@H]21` : normalized growth was 0.97 (inactive)

Short answer for `CC(C)[C@@H]1CC[C@@H](C)C[C@H]1O` : normalized growth was 0.986 (inactive)

Short answer for `O=C1NC(=O)C(=O)C(=O)N1` : normalized growth was 0.962 (inactive)

Short answer for `CCOC(=O)Nc1nc2ccccc2[nH]1` : normalized growth was 1.13 (inactive)

Short answer for CCCCN1CCCCC1C(=O)Nc1c(C)cccc1C (configuration not stated) : normalized growth was 0.967 (inactive)

Short answer for `NC(N)=NS(=O)(=O)c1ccc(N)cc1` : normalized growth was 0.934 (inactive)

Short answer for C#CCCCCCCCCCCCC(=O)CC(O)COC(C)=O (configuration not stated) : normalized growth was 1.04 (inactive)
